Tested on: Mycobacterium tuberculosis
Experiment: Antimicrobial activity against Mycobacterium tuberculosis H37Rv
Assay type: functional
# Lookup of reported MIC99 keyed by entry
Please state the figure in µM; there is no need to write the unit.

[[record]]
structure_smiles_string = "CC(=O)O[C@@]12CO[C@@H]1C[C@H](O)[C@@]1(C)C(=O)[C@H](O)C3=C(C)[C@@H](OC(=O)/C=C/c4cccc5ccccc45)C[C@@](O)([C@@H](OC(=O)c4ccccc4)[C@H]21)C3(C)C"
metric = "MIC99"
result = 5

[[record]]
structure_smiles_string = "CC(=O)O[C@@]12CO[C@@H]1C[C@H](O)[C@@]1(C)C(=O)[C@H](O)C3=C(C)[C@@H](OC(=O)/C=C/c4ccc(Sc5ccccc5)cc4)C[C@@](O)([C@@H](OC(=O)c4ccccc4)[C@H]21)C3(C)C"
metric = "MIC99"
result = 2.5

[[record]]
structure_smiles_string = "CC(=O)O[C@@]12CO[C@@H]1C[C@H](O)[C@@]1(C)C(=O)[C@H](OC(=O)/C=C/c3ccc4ccccc4c3)C3=C(C)[C@@H](O)C[C@@](O)([C@@H](OC(=O)c4ccccc4)[C@H]21)C3(C)C"
metric = "MIC99"
result = 20

[[record]]
structure_smiles_string = "CC(=O)O[C@@]12CO[C@@H]1C[C@H](O)[C@@]1(C)C(=O)[C@H](O)C3=C(C)[C@@H](OC(=O)/C=C/c4ccc5ccccc5c4)C[C@@](O)([C@@H](OC(=O)c4ccccc4)[C@H]21)C3(C)C"
metric = "MIC99"
result = 5


Give the measured MIC99 of `CC(=O)O[C@@]1([C@@H]2/C(C)=C(/O)C(=O)C3=C(C)[C@@H](OC(=O)/C=C/c4ccc(Sc5ccccc5)cc4)C[C@@](O)([C@H]2OC(=O)c2ccccc2)C3(C)C)CO[C@@H]1CCO` . 2.5
